Test system: Nicotinate-nucleotide adenylyltransferase NadD (Staphylococcus aureus N315)
ASSAY_REMARKS: S. aureus NadD enzyme activity blockers – biochemical, colorimetric, uHTS, primary screen (AID 602399)
CONDITION_DETAILS: purified NadD enzyme, colorimetric absorbance read-out; at 20 µM; stronger effect = higher value
Screen size: about 360,000 compounds; about 2,800 (0.78%) were called active. The full list was thinned out, with actives kept by preference.
ASSAY_METRIC: inhibition (%)
Give bare numbers, in %.

Example results:
INSERT INTO results (compound, unit_info, measured_value) VALUES
  ('CC1=CC(=Cc2sc3ccccc3[n+]2C)C=C(C)O1', '%', 1.49),
  ('O=C1NC(=O)N(Cc2ccco2)C(=O)/C1=C\c1ccc(-c2ccc(F)cc2)o1', '%', 38.2),
  ('COC1C(O)C(C)OC(OC2CCC3(C=O)C(CCC4C3CCC3(C)C(C5=CC(=O)OC5)CCC43O)C2)C1O (stereo not given)', '%', -4.34),
  ('CC1(C)C(c2ccccc2)=NC(c2cccnc2)=[N+]1[O-]', '%', -1.36);

Continue with the next compound.
Query: May I ask what inhibition has been recorded for COc1cccc(-c2nc3ccc(N4CCN(C)CC4)cc3[nH]2)c1 ?
Reply: -5.51
